Tested on: K562
experimentalDetails: NCI tumour cell line growth inhibition, 48 h
Activity calls are given as the source filed them. Rule as the data show it: active = GI50 up to about 1.1 µM and inactive = higher.
I would appreciate it if you answered using one of these outcomes: 1 (yes) (active), 0 (no) (inactive)

molecule: CNC(=O)C1CCCN1C(=O)C(Cc1c[nH]cn1)NC(=O)C1CCC(=O)N1 (centres undefined)
subjectOfTest: K562
className: 0 (no)

GET /call?item= "COC(=O)n1c(C[P+](c2ccccc2)(c2ccccc2)c2ccccc2)cc2ccccc21" returns the recorded outcome of this test.
1 (yes)

GET /call?item= "C[As+](C)(c1ccc(Br)c([N+](=O)[O-])c1)c1ccc(Br)c([N+](=O)[O-])c1" returns the recorded outcome of this test.
0 (no)

GET /call?item= "Cc1nn2c(=O)n(-c3cccc(-n4nnc5c(-c6ccccc6)c(C)nn5c4=O)c3C)nnc2c1-c1ccccc1" returns the recorded outcome of this test.
0 (no)

GET /call?item= "CCCc1cn2c(/C=N/NC(=N)N)c(-c3cc([N+](=O)[O-])c(Cl)cc3Cl)nc2s1" returns the recorded outcome of this test.
0 (no)

GET /call?item= "COc1ccc(C2=C(Cl)C(=O)O/C2=C\c2ccc(OC)c(Br)c2)cc1Cl" returns the recorded outcome of this test.
0 (no)

GET /call?item= "CC(C)OC(=O)c1ccc(NCc2cc(O)ccc2O)cc1Cl" returns the recorded outcome of this test.
1 (yes)

GET /call?item= "C[C@@H](O)CCC(=O)c1ccoc1" returns the recorded outcome of this test.
0 (no)

GET /call?item= "CCSc1nc(N)c2c(-c3ccc(OC)c(OC)c3)c3c(nc2n1)CCCC3" returns the recorded outcome of this test.
0 (no)

GET /call?item= "CN(C(=O)c1ccc(OCCCC(=O)O)c(Cl)c1Cl)C1CCCC1" returns the recorded outcome of this test.
0 (no)

GET /call?item= BrC1=CC=C2NC=CC3=CC=NC1C32 (centres undefined) returns the recorded outcome of this test.
0 (no)

Value source: ChEMBL document CHEMBL1201862
